# subject-of-test: T1, Cyno CD33 ECD-HSA (cynomolgus monkey)
# T1 construct: Cyno CD33 extracellular domain fused to monomeric human serum albumin and a six-histidine tag; also called C33W1
# test-protocol: ProteOn SPR, mAb captured by anti-human Fc, 1:1 Langmuir fit
value-type: kon (M⁻¹ s⁻¹)
Provide only the numeric value, understood in M⁻¹ s⁻¹.

Worked cases, kon given:
C33B125 (antibody, IgG1, V domains shown, huIgG1 F405L; also called C33F130; C33H84/C33L66) VH: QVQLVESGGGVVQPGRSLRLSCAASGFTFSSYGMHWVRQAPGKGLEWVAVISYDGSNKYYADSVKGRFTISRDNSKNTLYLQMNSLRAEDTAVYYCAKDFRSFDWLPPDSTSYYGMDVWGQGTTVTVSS VL: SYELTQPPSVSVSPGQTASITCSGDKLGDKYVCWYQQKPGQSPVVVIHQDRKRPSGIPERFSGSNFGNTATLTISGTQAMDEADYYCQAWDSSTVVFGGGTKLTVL    1.12e+06
C33B73 (antibody, IgG1, V domains shown, huIgG1 F405L; also called C33F78; C33H66/C33L60) VH: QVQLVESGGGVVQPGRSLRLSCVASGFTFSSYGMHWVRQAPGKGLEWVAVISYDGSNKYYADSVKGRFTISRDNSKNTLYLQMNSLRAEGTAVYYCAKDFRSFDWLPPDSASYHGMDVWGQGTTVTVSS VL: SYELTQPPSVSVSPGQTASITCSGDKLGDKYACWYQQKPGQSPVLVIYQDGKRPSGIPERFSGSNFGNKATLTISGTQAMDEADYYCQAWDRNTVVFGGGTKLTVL    600000

We next turn to a different binder, shown below.
Query :: Which kon is reported for this binder? C33B55 (antibody, IgG1, V domains shown, huIgG1 F405L; also called C33F60; C33H45/C33L11) VH: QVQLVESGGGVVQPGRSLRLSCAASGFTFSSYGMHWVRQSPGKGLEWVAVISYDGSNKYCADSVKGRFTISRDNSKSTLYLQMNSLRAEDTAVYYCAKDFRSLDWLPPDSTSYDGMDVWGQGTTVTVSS VL: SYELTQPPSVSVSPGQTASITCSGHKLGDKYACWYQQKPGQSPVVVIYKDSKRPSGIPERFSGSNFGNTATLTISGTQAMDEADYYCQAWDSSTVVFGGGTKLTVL
Result :: 1.16e+06
